Assay: Clearance in rhesus monkey
Assay type: ADME, Macaca mulatta
Settings: in vivo
Quantity name: clearance (mL/min/kg)
Give bare numbers, in mL/min/kg.

[[record]]
line_notation = "CC(C)[C@@H](C)[C@@]1(C)CC[C@]2(C)[C@H]3CC[C@@H]4[C@@]5(COC[C@@]4(C)[C@@H](OC[C@](C)(N)C(C)(C)C)[C@H](n4ncnc4-c4ccncc4)C5)C3=CC[C@@]2(C)[C@@H]1C(=O)O"
unit_string = "mL/min/kg"
test_result = 11


--- query ---
Incoming: Endpoint output: clearance of `CC(C)[C@@H](C)[C@@]1(C)CC[C@]2(C)[C@H]3CC[C@@H]4[C@@]5(COC[C@@]4(C)[C@@H](OC[C@](C)(N)C(C)C)[C@H](n4ncnc4-c4ccncc4)C5)C3=CC[C@@]2(C)[C@@H]1C(=O)O` . Value?
Outgoing: 14

* * *

Tested on: Candida albicans
Assay: Antifungal activity against Candida albicans MY1055 infected in DBA/2 mouse model of disseminated candidiasis assessed as reduction in fungal burden in kidney by measuring log change in colony forming units at 6.25 mg/kg, po bid for 7 days by TOKA
Assay type: functional
Details: time 7 day
For each of the molecules below, state its Activity.
Numbers only, in deltalog10CFU.

Solved cases below.
[[record]]
line_notation = "CC(C)[C@@H](C)[C@@]1(C)CC[C@]2(C)[C@H]3CC[C@@H]4[C@@]5(COC[C@@]4(C)[C@@H](OC[C@](C)(N)C(C)C)[C@H](n4ncnc4-c4cccnc4)C5)C3=CC[C@@]2(C)[C@@H]1C(=O)O"
test_result = -1.4

[[record]]
line_notation = "CCC(N)(CC)CO[C@H]1[C@H](n2ncnc2-c2ccncc2)C[C@@]23COC[C@]1(C)[C@@H]2CC[C@H]1C3=CC[C@@]2(C)[C@H](C(=O)O)[C@@](C)([C@H](C)C(C)C)CC[C@]12C"
test_result = -1.3

[[record]]
line_notation = "CC(C)[C@@H](C)[C@@]1(C)CC[C@]2(C)[C@H]3CC[C@@H]4[C@@]5(COC[C@@]4(C)[C@@H](OC[C@](C)(N)C4(C)CC4)[C@H](n4ncnc4-c4ccncc4)C5)C3=CC[C@@]2(C)[C@@H]1C(=O)O"
test_result = -1.5


--- query ---
Incoming: I'm curious: which Activity was measured for `CC(C)[C@@H](C)[C@@]1(C)CC[C@]2(C)[C@H]3CC[C@@H]4[C@@]5(COC[C@@]4(C)[C@@H](OC[C@@]4(N)CCOCC4(C)C)[C@H](n4ncnc4-c4ccncc4)C5)C3=CC[C@@]2(C)[C@@H]1C(=O)O` tested on Candida albicans?
Outgoing: -0.9

* * *

Tested on: Candida albicans
Assay: Antifungal activity against Candida albicans MY1055 infected in DBA/2 mouse model of disseminated candidiasis assessed as reduction in fungal burden in kidney by measuring log change in colony forming units at 12.5 mg/kg, po bid for 7 days by TOKA
Format: functional
Settings: time 7 day
Quantity name: Activity (deltalog10CFU)
Answers are plain numbers, in deltalog10CFU.

[[record]]
compound = "CC(C)[C@@H](C)[C@@]1(C)CC[C@]2(C)[C@H]3CC[C@@H]4[C@@]5(COC[C@@]4(C)[C@@H](OC[C@](C)(N)C(C)C)[C@H](n4ncnc4-c4ccncc4)C5)C3=CC[C@@]2(C)[C@@H]1C(=O)O"
unit_string = "deltalog10CFU"
test_result = -2.9


--- query ---
Incoming: I'm curious: which Activity was measured for CC(C)[C@@H](C)[C@@]1(C)CC[C@]2(C)[C@H]3CC[C@@H]4[C@@]5(COC[C@@]4(C)[C@@H](OC[C@](C)(N)C(C)(C)C)[C@H](n4ncnc4-c4ccncc4)C5)C3=CC[C@@]2(C)[C@@H]1C(=O)O [IBREXAFUNGERP] tested on Candida albicans?
Outgoing: -3.2

* * *

System: Candida albicans
Test: Antifungal activity against Candida albicans MY1055 infected in DBA/2 mouse model of disseminated candidiasis assessed as reduction in fungal burden in kidney by measuring log change in colony forming units at 12.5 mg/kg, po bid for 7 days by TOKA
Format: functional
Conditions: time 7 day
Quantity name: Activity (deltalog10CFU)
Answers are plain numbers, in deltalog10CFU.

[[record]]
line_notation = "CC(C)[C@@H](C)[C@@]1(C)CC[C@]2(C)[C@H]3CC[C@@H]4[C@@]5(COC[C@@]4(C)[C@@H](OC[C@](C)(N)c4ccccc4)[C@H](n4ncnc4-c4ccncc4)C5)C3=CC[C@@]2(C)[C@@H]1C(=O)O"
unit_string = "deltalog10CFU"
test_result = -1.5


Hi, could you look up Activity for each item in my list?
1. CCC(N)(CC)CO[C@H]1[C@H](n2ncnc2-c2ccncc2)C[C@@]23COC[C@]1(C)[C@@H]2CC[C@H]1C3=CC[C@@]2(C)[C@H](C(=O)O)[C@@](C)([C@H](C)C(C)C)CC[C@]12C
2. CC(C)[C@@H](C)[C@@]1(C)CC[C@]2(C)[C@H]3CC[C@@H]4[C@@]5(COC[C@@]4(C)[C@@H](OC[C@](C)(N)C4(C)CC4)[C@H](n4ncnc4-c4ccncc4)C5)C3=CC[C@@]2(C)[C@@H]1C(=O)O

Outgoing:
1. -2.3
2. -2.6

* * *

For each of the compounds below, state its half-life.
Assay: Half life in dog
Type: ADME, Canis lupus familiaris
Conditions: in vivo
One number for each entry, in h.

[[record]]
compound = "CC(C)[C@@H](C)[C@@]1(C)CC[C@]2(C)[C@H]3CC[C@@H]4[C@@]5(COC[C@@]4(C)[C@@H](OC[C@](C)(N)C(C)C)[C@H](n4ncnc4-c4ccncc4)C5)C3=CC[C@@]2(C)[C@@H]1C(=O)O"
test_result = 9


Incoming: Endpoint output: half-life of CC(C)[C@@H](C)[C@@]1(C)CC[C@]2(C)[C@H]3CC[C@@H]4[C@@]5(COC[C@@]4(C)[C@@H](OC[C@](C)(N)C(C)(C)C)[C@H](n4ncnc4-c4ccncc4)C5)C3=CC[C@@]2(C)[C@@H]1C(=O)O [IBREXAFUNGERP] . Value?
Outgoing: 11.3

* * *

Test system: Candida albicans
Experiment: Antifungal activity against Candida albicans MY1055 infected in DBA/2 mouse model of disseminated candidiasis assessed as reduction in fungal burden in kidney by measuring log change in colony forming units at 12.5 mg/kg, po bid for 7 days by TOKA
Format: functional
Settings: time 7 day
// assign 1.0 if Activity falls strictly below -2 deltalog10CFU, else 0.0 (ties count as 0.0)

// below: answered molecules
[[record]]
line_notation = "CN[C@@](C)(CO[C@H]1[C@H](n2ncnc2-c2ccncc2)C[C@@]23COC[C@]1(C)[C@@H]2CC[C@H]1C3=CC[C@@]2(C)[C@H](C(=O)O)[C@@](C)([C@H](C)C(C)C)CC[C@]12C)C(C)(C)C"
discrete_label = 1.0

[[record]]
line_notation = "CC(C)[C@@H](C)[C@@]1(C)CC[C@]2(C)[C@H]3CC[C@@H]4[C@@]5(COC[C@@]4(C)[C@@H](OCC(C)(C)N)[C@H](n4ncnc4-c4ccncc4)C5)C3=CC[C@@]2(C)[C@@H]1C(=O)O"
discrete_label = 0.0

[[record]]
line_notation = "CN[C@@](C)(CO[C@H]1[C@H](n2ncnc2-c2cccnc2)C[C@@]23COC[C@]1(C)[C@@H]2CC[C@H]1C3=CC[C@@]2(C)[C@H](C(=O)O)[C@@](C)([C@H](C)C(C)C)CC[C@]12C)C(C)C"
discrete_label = 1.0

[[record]]
line_notation = "CC(C)[C@@H](C)[C@@]1(C)CC[C@]2(C)[C@H]3CC[C@@H]4[C@@]5(COC[C@@]4(C)[C@@H](OC[C@](C)(N)C(C)C)[C@H](n4ncnc4-c4cncnc4)C5)C3=CC[C@@]2(C)[C@@H]1C(=O)O"
discrete_label = 1.0

[[record]]
line_notation = "CC(C)[C@@H](C)[C@@]1(C)CC[C@]2(C)[C@H]3CC[C@@H]4[C@@]5(COC[C@@]4(C)[C@@H](OC[C@](C)(N)C(C)C)[C@H](n4ncnc4-c4cccnc4)C5)C3=CC[C@@]2(C)[C@@H]1C(=O)O"
discrete_label = 1.0

[[record]]
line_notation = "CC(C)[C@@H](C)[C@@]1(C)CC[C@]2(C)[C@H]3CC[C@@H]4[C@@]5(COC[C@@]4(C)[C@@H](OC[C@](C)(N)C(C)C)[C@H](n4ncnc4-c4ccccc4)C5)C3=CC[C@@]2(C)[C@@H]1C(=O)O"
discrete_label = 0.0

[[record]]
line_notation = "CC(C)[C@@H](C)[C@@]1(C)CC[C@]2(C)[C@H]3CC[C@@H]4[C@@]5(COC[C@@]4(C)[C@@H](OC[C@H](N)C(C)(C)C)[C@H](n4ncnc4-c4ccncc4)C5)C3=CC[C@@]2(C)[C@@H]1C(=O)O"
discrete_label = 1.0

[[record]]
line_notation = "CC(C)[C@@H](C)[C@@]1(C)CC[C@]2(C)[C@H]3CC[C@@H]4[C@@]5(COC[C@@]4(C)[C@@H](OC[C@@]4(N)CCOCC4(C)C)[C@H](n4ncnc4-c4ccncc4)C5)C3=CC[C@@]2(C)[C@@H]1C(=O)O"
discrete_label = 1.0


Below: the item to evaluate.
Incoming: Lab log: compare recorded Activity with -2 deltalog10CFU; is it strictly lower for `CN[C@@](C)(CO[C@H]1[C@H](n2ncnc2-c2ccncc2)C[C@@]23COC[C@]1(C)[C@@H]2CC[C@H]1C3=CC[C@@]2(C)[C@H](C(=O)O)[C@@](C)([C@H](C)C(C)C)CC[C@]12C)C(C)C` ?
Outgoing: 1.0
